Test system: human breast cancer MDA-MB-231 cell line
Assay: MTT in vitro cytotoxicity assay, MDA-MB-231
Format: cell-based
Conditions: MDA-MB-231, MTT assay after 48 h of treatment, averaged from at least 3 independent experiments, variation ±10%, read-out: IC50 (µM) MDA-MB-231
Experimental: As summarized in Table 1, five cancer cell lines, including MDA-MB-231, PC3, WM9, HEL and K562 cell lines, were induced for testing the anti-cancer activities of those derivatives. The first line anti-cancer drug, vincristine, was treated as positive control. All the test compounds were dissolved in DMSO. The preliminary structure-activity relationship of all compounds against the 5 cancer cell lines was also investigated. […]

# chemical.string, IC50 [µM]
data = [
    ("COc1cc(Cl)c2cc1Oc1ccc(cc1)C[C@H]1c3cc(c(OC)cc3CCN1C)Oc1c(OC(=O)c3ccccc3)c(OC)c(Cl)c3c1[C@H](C2)N(C)CC3", 7.22),
    ("COc1cc([N+](=O)[O-])c2cc1Oc1ccc(cc1)C[C@H]1c3cc(c(OC)cc3CCN1C)Oc1c(OC(=O)c3ccccc3)c(OC)cc3c1[C@H](C2)N(C)CC3", 2.92),
    ("COc1ccc2cc1Oc1ccc(cc1)C[C@H]1c3cc(c(OC)cc3CCN1C)Oc1c(OS(=O)(=O)c3ccccc3[N+](=O)[O-])c(OC)cc3c1[C@H](C2)N(C)CC3", 8.7),
]

====

system: human leukaemia HEL cell line; assay: MTT in vitro cytotoxicity assay, HEL; format: cell-based; conditions: MTT assay after 48 h of treatment, averaged from at least 3 independent experiments, variation ±10%, read-out: IC50 (µM) HEL

# compound, assay.system, IC50, µM
measured = [
    ("COc1ccc2cc1Oc1ccc(cc1)C[C@H]1c3cc(c(OC)cc3CCN1C)Oc1c(OCc3ccccc3)c(OC)cc3c1[C@H](C2)N(C)CC3 [Compound 1a, 7-O-Benzyl-fangchinoline]", "human leukaemia HEL cell line", 4.42),
    ("COc1ccc2cc1Oc1ccc(cc1)C[C@H]1c3cc(c(OC)cc3CCN1C)Oc1c(OS(=O)(=O)c3ccccc3[N+](=O)[O-])c(OC)cc3c1[C@H](C2)N(C)CC3 [Compound 3c]", "human leukaemia HEL cell line", 6.82),
    ("COc1cc(Br)c2cc1Oc1ccc(cc1)C[C@H]1c3cc(c(OC)cc3CCN1C)Oc1c(OC(=O)c3ccccc3)c(OC)c(Br)c3c1[C@H](C2)N(C)CC3 [Compound 4a, 7-O-Benzoyl-5,14-dibromo-fangchinoline]", "human leukaemia HEL cell line", 2.65),
    ("COc1cc(Cl)c2cc1Oc1ccc(cc1)C[C@H]1c3cc(c(OC)cc3CCN1C)Oc1c(OC(=O)c3ccccc3)c(OC)c(Cl)c3c1[C@H](C2)N(C)CC3 [Compound 4b, 7-O-Benzoyl-5,14-dichloro-fangchinoline]", "human leukaemia HEL cell line", 5.11),
]

====

experiment: Toxicity on normal human liver cell line; assay type: cell-based; conditions: HL7702 normal liver cells; normal human liver cell line HL7702; read-out: IC50 against HL7702 cell growth
readout: IC50 at 2 days (µM)

# chemical.string, value.observed
measured = [
    ("COc1ccc2cc1Oc1ccc(cc1)C[C@H]1c3cc(c(OC)cc3CCN1C)Oc1c(OC(=O)c3ccco3)c(OC)cc3c1[C@H](C2)N(C)CC3", 17.3),
    ("COc1cc([N+](=O)[O-])c2cc1Oc1ccc(cc1)C[C@H]1c3cc(c(OC)cc3CCN1C)Oc1c(OCc3ccccc3)c(OC)cc3c1[C@H](C2)N(C)CC3", 5.6),
    ("COc1cc([N+](=O)[O-])c2cc1Oc1ccc(cc1)C[C@H]1c3cc(c(OC)cc3CCN1C)Oc1c(OC(=O)c3ccccc3)c(OC)cc3c1[C@H](C2)N(C)CC3", 5),
]

Where do these numbers come from? They come from paper PMC6150242.
